Provide the reported MIC80 of each item.
System: Pseudomonas aeruginosa
Assay: Antibacterial activity against Pseudomonas aeruginosa ATCC 49189 after 24 hrs by microtiter broth dilution method
Format: functional
Settings: ATCC 49189, 24 h

COc1ccc(-c2cc3ccc(OCCc4nc(-c5ccccc5)oc4C)cc3o2)cc1	> 200 µg/mL

Hi, could you look up MIC80 for each item in my list?
1. COc1cc(/N=C/c2c(-c3ccccc3)oc3cc(OCCc4nc(-c5ccccc5)oc4C)ccc23)cc(OC)c1OC
2. COc1cc(C(=O)c2c(-c3ccc(C)o3)oc3cc(OCCc4nc(-c5ccccc5)oc4C)ccc23)cc(OC)c1OC
3. COc1ccc(-c2oc3cc(OCCc4nc(-c5ccccc5)oc4C)ccc3c2C(=O)/C=C/c2cc(OC)c(OC)c(OC)c2)cc1

> 200 µg/mL
> 200 µg/mL
> 200 µg/mL
